assayed-target: mouse kappa opioid receptor (mKOR) (Mus musculus, UniProt P33534)
Construct: Stimulation of Endogenous Mouse Kappa-Opioid Receptor in R1.G1 Cells; host or cells: R1.G1 mouse thymoma cells
Sequence (P33534 whole entry): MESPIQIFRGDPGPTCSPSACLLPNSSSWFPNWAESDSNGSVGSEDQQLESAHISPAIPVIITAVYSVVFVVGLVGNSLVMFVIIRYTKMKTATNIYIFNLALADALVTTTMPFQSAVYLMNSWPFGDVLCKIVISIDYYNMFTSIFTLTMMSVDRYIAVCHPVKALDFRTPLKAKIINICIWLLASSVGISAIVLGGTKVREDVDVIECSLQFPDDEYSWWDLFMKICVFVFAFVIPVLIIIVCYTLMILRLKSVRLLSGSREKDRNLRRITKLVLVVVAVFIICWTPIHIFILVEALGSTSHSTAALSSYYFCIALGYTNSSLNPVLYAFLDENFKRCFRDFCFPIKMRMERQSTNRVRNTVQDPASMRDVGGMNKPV
assay-remarks: cell-based
measurement-parameters: read-out: mKOR Efficacy(%)
Square brackets hold non-standard residues; d marks the D form. Peptide text beside a SMILES is read from it. * marks the point of attachment. Homopiperazine(4-amidino) = N=C(N)N1CCCN(*)CC1; dAgb = N=C(N)NCC[C@@H](N)C(=O)O

{"compound": "CC(C)C[C@@H](NC(=O)[C@@H](Cc1ccccc1)NC(=O)[C@H](N)Cc1ccccc1)C(=O)N[C@H](CCCN)C(=O)N1CCNC(C(=O)O)C1 (some centres unmarked)", "Emax [%]": 102}
{"compound": "CC(C)C[C@@H](NC(=O)[C@@H](Cc1ccccc1)NC(=O)[C@H](N)Cc1ccccc1)C(=O)N[C@H](CCCCN)C(=O)N1CCC(n2cc(-c3ccccc3)[nH]c2=O)CC1", "Emax [%]": 88}
{"compound": "CC(C)C[C@@H](NC(=O)[C@@H](Cc1ccccc1)NC(=O)[C@H](N)Cc1ccccc1)C(=O)N[C@H](CCCCNC(C)C)C(=O)N1CCCN(C(=N)N)CC1", "Emax [%]": 103}
{"compound": "CC(C)C[C@@H](NC(=O)[C@@H](Cc1ccccc1)NC(=O)[C@H](N)Cc1ccccc1)C(=O)N[C@H](CCCN)C(=O)N1CCC(N2CCC[C@H]2C(=O)O)CC1", "Emax [%]": 99}
{"compound": "CC(C)C[C@@H](NC(=O)[C@@H](Cc1ccccc1)NC(=O)[C@H](N)Cc1ccccc1)C(=O)N[C@H](CCNC(=N)N)C(=O)N1CCCN(C(=N)N)CC1 [Compound (23)] (H-[dF][dF][dL][dAgb]-{Homopiperazine(4-amidino)})", "Emax [%]": 104}

====

assayed-target: mouse kappa opioid receptor (mKOR) (Mus musculus, UniProt P33534)
Construct: Stimulation of Endogenous Mouse Kappa-Opioid Receptor in R1.G1 Cells; host or cells: R1.G1 mouse thymoma cells
assay-remarks: cell-based
measurement-parameters: read-out: mKOR Efficacy(%)
Square brackets hold non-standard residues; d marks the D form. Peptide text beside a SMILES is read from it. * marks the point of attachment. Piperidinyl(4-(1-Pro-OH)) = O=C(O)[C@@H]1CCCN1C1CCN(*)CC1; Piperidin1yl(4-NH2,4-COOH) = NC1(C(=O)O)CCN(*)CC1; dAgb = N=C(N)NCC[C@@H](N)C(=O)O; dDab = NCC[C@@H](N)C(=O)O
measurement-kind: Emax (%)

{"compound": "CC(C)C[C@@H](NC(=O)[C@@H](Cc1ccccc1)NC(=O)[C@H](N)Cc1ccccc1)C(=O)N[C@H](CCNC(=N)N)C(=O)N1CCC(N)(C(=O)O)CC1 [Compound (11)] (H-[dF][dF][dL][dAgb]-{Piperidin1yl(4-NH2,4-COOH)})", "measurement-kind": "Emax", "reading": 92}
{"compound": "CC(C)C[C@@H](NC(=O)[C@@H](Cc1ccccc1)NC(=O)[C@H](N)Cc1ccccc1)C(=O)N[C@H](CCCN)C(=O)N1CCC(CCCC(=O)O)CC1", "measurement-kind": "Emax", "reading": 100}
{"compound": "CC(C)C[C@@H](NC(=O)[C@@H](Cc1ccccc1)NC(=O)[C@H](N)Cc1ccccc1)C(=O)N[C@H](CCCCN)C(=O)N1CCC(n2c(=O)[nH]c3ccccc32)CC1", "measurement-kind": "Emax", "reading": 87}
{"compound": "CNCCCC[C@@H](NC(=O)[C@@H](CC(C)C)NC(=O)[C@@H](Cc1ccccc1)NC(=O)[C@H](N)Cc1ccccc1)C(=O)N1CCC(N)(C(=O)O)CC1", "measurement-kind": "Emax", "reading": 96}
{"compound": "CC(C)C[C@@H](NC(=O)[C@@H](Cc1ccccc1)NC(=O)[C@H](N)Cc1ccccc1)C(=O)N[C@H](CCCCN)C(=O)N1CCCN(C(=N)N)CC1", "measurement-kind": "Emax", "reading": 92}
{"compound": "CC(C)C[C@@H](NC(=O)[C@@H](Cc1ccccc1)NC(=O)[C@H](N)Cc1ccccc1)C(=O)N[C@H](CCCCN)C(=O)N1CCC(N2CCC[C@H]2C(=O)O)CC1", "measurement-kind": "Emax", "reading": 94}
{"compound": "CC(C)C[C@@H](NC(=O)[C@@H](Cc1ccccc1)NC(=O)[C@H](N)Cc1ccccc1)C(=O)N[C@H](CCN)C(=O)N1CCC(N2CCC[C@H]2C(=O)O)CC1 [Compound (12)] (H-[dF][dF][dL][dDab]-{Piperidinyl(4-(1-Pro-OH))})", "measurement-kind": "Emax", "reading": 89}
{"compound": "CC(C)C[C@@H](N)C(=O)N[C@H](CCCN)C(=O)N[C@@H](CCCCNC(=O)[C@@H](CCCN)NC(=O)[C@@H](CC(C)C)NC(=O)[C@@H](Cc1ccccc1)NC(=O)[C@H](N)Cc1ccccc1)C(=O)O", "measurement-kind": "Emax", "reading": 96}
{"compound": "CC(C)C[C@@H](NC(=O)[C@@H](Cc1ccccc1)NC(=O)[C@H](N)Cc1ccccc1)C(=O)N[C@H](CCCCN)C(=O)N1CCC2(CC1)C(=O)NCN2c1ccccc1", "measurement-kind": "Emax", "reading": 86}
{"compound": "CC(C)C[C@@H](N)C(=O)N[C@H](CCCN)C(=O)N[C@H](CCCCNC(=O)[C@@H](CCCN)NC(=O)[C@@H](CC(C)C)NC(=O)[C@@H](Cc1ccccc1)NC(=O)[C@H](N)Cc1ccccc1)C(=O)O", "measurement-kind": "Emax", "reading": 91}
{"compound": "CC(C)C[C@@H](NC(=O)[C@@H](Cc1ccccc1)NC(=O)[C@H](N)Cc1ccccc1)C(=O)N[C@H](CCCN)C(=O)N1CCC(N2CCC[C@H]2C(N)=O)CC1", "measurement-kind": "Emax", "reading": 96}

====

assayed-target: mouse kappa opioid receptor (mKOR) (Mus musculus, UniProt P33534)
Construct: Stimulation of Endogenous Mouse Kappa-Opioid Receptor in R1.G1 Cells; host or cells: R1.G1 mouse thymoma cells
assay-remarks: cell-based
Square brackets hold non-standard residues; d marks the D form. Peptide text beside a SMILES is read from it. * marks the point of attachment. Piperidinyl(4-(1-Pro-OH)) = O=C(O)[C@@H]1CCCN1C1CCN(*)CC1; Piperidin1yl(4-NH2,4-COOH) = NC1(C(=O)O)CCN(*)CC1; dAgp = N=C(N)NC[C@@H](N)C(=O)O; dDab = NCC[C@@H](N)C(=O)O
The entries below come with measured EC50 values attached.

{"molecule": "CC(C)C[C@@H](NC(=O)[C@@H](Cc1ccccc1)NC(=O)[C@H](N)Cc1ccccc1)C(=O)N[C@H](CCN)C(=O)N1CCC(N2CCC[C@H]2C(=O)O)CC1 [Compound (12)] (H-[dF][dF][dL][dDab]-{Piperidinyl(4-(1-Pro-OH))})", "EC50 / nM": 0.055}
{"molecule": "CC(C)C[C@@H](NC(=O)[C@H](N)Cc1ccccc1)C(=O)N[C@H](CCCN)C(=O)N[C@H](CCCCNC(=O)[C@@H](CCCN)NC(=O)[C@@H](CC(C)C)NC(=O)[C@@H](Cc1ccccc1)NC(=O)[C@H](N)Cc1ccccc1)C(=O)O [Compound (84)]", "EC50 / nM": 0.34}
{"molecule": "C/N=C(/N)N1CCCN(C(=O)[C@@H](CCCN)NC(=O)[C@@H](CC(C)C)NC(=O)[C@@H](Cc2ccccc2)NC(=O)[C@H](N)Cc2ccccc2)CC1 [Compound (52)]", "EC50 / nM": 0.035}
{"molecule": "CC(C)C[C@@H](NC(=O)[C@@H](Cc1ccccc1)NC(=O)[C@H](N)Cc1ccccc1)C(=O)N[C@H](CNC(=N)N)C(=O)N1CCC(N)(C(=O)O)CC1 [Compound (10)] (H-[dF][dF][dL][dAgp]-{Piperidin1yl(4-NH2,4-COOH)})", "EC50 / nM": 0.826}

====

assayed-target: human kappa opioid receptor (hKOR) (Homo sapiens, UniProt P41145)
Sequence (P41145 whole entry): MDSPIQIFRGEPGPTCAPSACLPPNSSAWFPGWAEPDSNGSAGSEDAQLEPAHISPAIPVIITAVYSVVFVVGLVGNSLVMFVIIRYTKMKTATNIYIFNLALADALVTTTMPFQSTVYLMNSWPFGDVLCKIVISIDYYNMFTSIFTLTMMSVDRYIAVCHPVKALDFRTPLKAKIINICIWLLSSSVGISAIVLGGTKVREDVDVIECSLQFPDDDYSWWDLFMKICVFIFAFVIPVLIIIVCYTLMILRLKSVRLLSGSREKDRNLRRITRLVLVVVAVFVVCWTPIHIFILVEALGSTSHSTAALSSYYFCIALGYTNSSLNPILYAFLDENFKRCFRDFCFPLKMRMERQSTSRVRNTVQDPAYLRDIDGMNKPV
assay-remarks: cell-based

{"compound": "CNCCC[C@@H](NC(=O)[C@@H](CC(C)C)NC(=O)[C@@H](Cc1ccccc1)NC(=O)[C@H](N)Cc1ccccc1)C(=O)N1CCCN(C(=N)N)CC1 [Compound (57)]", "assayed-target": "human kappa opioid receptor (hKOR) (Homo sapiens, UniProt P41145)", "EC50": "0.09 nM"}
{"compound": "CC(C)C[C@@H](NC(=O)[C@@H](Cc1ccccc1)NC(=O)[C@H](N)Cc1ccccc1)C(=O)N[C@H](CCCCN)C(=O)NCc1ccc(C(F)(F)F)nc1 [Compound (72)]", "assayed-target": "human kappa opioid receptor (hKOR) (Homo sapiens, UniProt P41145)", "EC50": "0.0667 nM"}
{"compound": "CC(C)C[C@@H](NC(=O)[C@@H](Cc1ccccc1)NC(=O)[C@H](N)Cc1ccccc1)C(=O)N[C@H](CCCCNC(C)C)C(=O)N1CCCN(C(=N)N)CC1 [Compound (17)]", "assayed-target": "human kappa opioid receptor (hKOR) (Homo sapiens, UniProt P41145)", "EC50": "0.1 nM"}
{"compound": "CC(C)C[C@@H](NC(=O)[C@@H](Cc1ccccc1)NC(=O)[C@H](N)Cc1ccccc1)C(=O)N[C@H](CCCN)C(=O)N1CCC(CC(=O)O)CC1 [Compound (39)]", "assayed-target": "human kappa opioid receptor (hKOR) (Homo sapiens, UniProt P41145)", "EC50": "0.12 nM"}
{"compound": "CC(C)C[C@@H](NC(=O)[C@@H](Cc1ccccc1)NC(=O)[C@H](N)Cc1ccccc1)C(=O)N[C@H](CCCN)C(=O)N1CCC(N2CCC[C@H]2C(N)=O)CC1 [Compound (50)]", "assayed-target": "human kappa opioid receptor (hKOR) (Homo sapiens, UniProt P41145)", "EC50": "0.19 nM"}
